Test: Aqueous solubility in DMSO at pH 7.4 by quantitative nitrogen detection assay
Format: physicochemical
Details: aqueous solution with DMSO
experimental-readout: solubility kinetic

>  <compound>
Cn1c2cc([S+](C)[O-])sc2c2cnn(Cc3ccccc3F)c(=O)c21 (stereo not given)

>  <observed-measurement>
4.4 µg/mL

$$$$
>  <compound>
Cc1cc2c(s1)c1cnn(Cc3ccccc3F)c(=O)c1n2C

>  <observed-measurement>
< 0.2 µg/mL

$$$$
>  <compound>
Cn1c2cc([S+](C)[O-])sc2c2cnn(Cc3cccc(O)c3)c(=O)c21 (stereo not given)

>  <observed-measurement>
16.9 µg/mL

$$$$
>  <compound>
Cn1c2cc([S+](C)[O-])sc2c2cnn(Cc3cccc(N)c3)c(=O)c21 (stereo not given)

>  <observed-measurement>
29.6 µg/mL

$$$$
>  <compound>
COc1cccc(Cn2ncc3c4sc([S+](C)[O-])cc4n(C)c3c2=O)c1 (stereo not given)

>  <observed-measurement>
37.4 µg/mL

$$$$

====

As a worked illustration, we turn to AC50 data collected for UniProt P14618.
Sequence (P14618 whole entry): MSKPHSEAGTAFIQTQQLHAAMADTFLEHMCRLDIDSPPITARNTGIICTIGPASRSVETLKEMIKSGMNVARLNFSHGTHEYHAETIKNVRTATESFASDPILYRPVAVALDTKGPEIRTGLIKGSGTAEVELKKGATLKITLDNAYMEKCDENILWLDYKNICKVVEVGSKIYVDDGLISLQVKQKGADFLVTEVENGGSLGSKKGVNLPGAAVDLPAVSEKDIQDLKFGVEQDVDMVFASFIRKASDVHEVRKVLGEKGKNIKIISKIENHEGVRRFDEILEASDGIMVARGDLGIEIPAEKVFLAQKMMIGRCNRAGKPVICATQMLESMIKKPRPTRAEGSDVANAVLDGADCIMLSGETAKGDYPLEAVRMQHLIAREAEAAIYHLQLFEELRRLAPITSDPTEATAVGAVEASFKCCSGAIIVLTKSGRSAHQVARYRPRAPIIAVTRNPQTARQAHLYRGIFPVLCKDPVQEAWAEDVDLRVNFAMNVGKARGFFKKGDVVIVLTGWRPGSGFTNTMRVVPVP

>  <entry-smiles>
Cn1c2cc(B(O)O)sc2c2cnn(Cc3ccccc3F)c(=O)c21

>  <AC50>
> 10 µM

$$$$
>  <entry-smiles>
CCCCCn1ncc2c3sc(C)cc3n(C)c2c1=O

>  <AC50>
> 35 µM

$$$$
>  <entry-smiles>
CCn1c2cc(C)sc2c2cnn(Cc3ccccc3F)c(=O)c21

>  <AC50>
5.9 µM

$$$$
>  <entry-smiles>
Cn1c2ccsc2c2ncn(Cc3ccccc3F)c(=O)c21

>  <AC50>
> 35 µM

$$$$
>  <entry-smiles>
COc1ccc(Cn2ncc3c4sc(C)cc4n(C)c3c2=O)cc1F

>  <AC50>
0.225 µM

$$$$
>  <entry-smiles>
Cc1cc2c(s1)c1cnn(Cc3ccc(C(F)(F)F)cc3F)c(=O)c1n2C

>  <AC50>
> 15 µM

$$$$
